- Run Description: in vivo
- Set-up: species or system male CD-1 mice
- Recorded Conditions: male, CD-1, mouse, sc, 5 mg/kg
Bridge positions count the residues as written; N and C are the ends. Square brackets hold non-standard residues; d marks the D form. Peptide text beside a SMILES is read from it. * marks the point of attachment. Lauroyl = CCCCCCCCCCCC(=O)*; Dab = NCC[C@H](N)C(=O)O
Measure Name: level at 12 h (ng/mL)
Numbers only; they are read as ng/mL.

Noted for CCCCCCCCCCCC(=O)NCCCC[C@@H]1NC(=O)[C@H](Cc2ccc(O)cc2)NC(=O)[C@@H]2CSSC[C@H](NC(=O)[C@H](C)NC(=O)[C@H](Cc3c[nH]cn3)NC(=O)[C@H](Cc3ccc(O)cc3)NC(=O)[C@@H]3CCCN3C(=O)[C@H]3CCCN3C(=O)[C@H](CCCCN)NC1=O)C(=O)N[C@@H](CCCNC(=N)N)C(=O)N[C@@H](C)C(=O)N1CCC[C@@H]1C(=O)N[C@@H](CCN)C(=O)N[C@@H](CCCNC(=N)N)C(=O)N[C@@H](Cc1ccc(O)cc1)C(=O)N2 [Ex. 17] (cyclo(YHACRA[dP][Dab]RYCYK(Lauroyl)K[dP]P); disulfide 4-11) : its level at 12 h reads 567

---

- Run Description: in vivo
- Parameters: species or system male CD-1 mice
- Recorded Conditions: male, CD-1, mouse, sc, 5 mg/kg
Bridge positions count the residues as written; N and C are the ends. Square brackets hold non-standard residues; d marks the D form. Peptide text beside a SMILES is read from it. * marks the point of attachment. Lauroyl = CCCCCCCCCCCC(=O)*; Dab = NCC[C@H](N)C(=O)O
Measure Name: Tmax (h)
Express the result in h but write the number alone.

Query CCCCCCCCCCCC(=O)NCCCC[C@@H]1NC(=O)[C@H](Cc2ccc(O)cc2)NC(=O)[C@@H]2CSSC[C@H](NC(=O)[C@H](C)NC(=O)[C@H](Cc3c[nH]cn3)NC(=O)[C@H](Cc3ccc(O)cc3)NC(=O)[C@@H]3CCCN3C(=O)[C@H]3CCCN3C(=O)[C@H](CCCCN)NC1=O)C(=O)N[C@@H](CCCNC(=N)N)C(=O)N[C@@H](C)C(=O)N1CCC[C@@H]1C(=O)N[C@@H](CCN)C(=O)N[C@@H](CCCNC(=N)N)C(=O)N[C@@H](Cc1ccc(O)cc1)C(=O)N2 [Ex. 17] (cyclo(YHACRA[dP][Dab]RYCYK(Lauroyl)K[dP]P); disulfide 4-11) yields Tmax of 2

---

Measured remaining at 24 h, 10 μM accompanies every entry in the list below.
- Run Description: Plasma stability in mouse plasma
- Type: in vitro ADME
- Recorded Conditions: mouse plasma, 37° C., 1440 min; read-out: mouse pl. cpd left at 1440 min
Numbered stars: 1 amine (or outer) side, 2 acyl side, 3 side chain; on linkers, the order of the positions; unused ones are H or OH. Bridge positions count the residues as written; N and C are the ends. Square brackets hold non-standard residues; d marks the D form. Peptide text beside a SMILES is read from it. * marks the point of attachment. X2 = CCCCCCCCCC[C@@H](N[*:1])C(=O)[*:2]; Gly(decyl) = CCCCCCCCCC[C@H](N)C(=O)O; Octanoyl = CCCCCCCC(=O)*; Dab = NCC[C@H](N)C(=O)O
Hi, when you answer, please include the unit after the number. Thanks!

Sample records with remaining at 24 h, 10 μM:
>  <Compound>
CCCCCCCCCC[C@H]1NC(=O)[C@H](Cc2ccc(O)cc2)NC(=O)[C@@H]2CSSC[C@H](NC(=O)[C@H](C)NC(=O)[C@H](Cc3c[nH]cn3)NC(=O)[C@H](Cc3ccc(O)cc3)NC(=O)[C@@H]3CCCN3C(=O)[C@H]3CCCN3C(=O)[C@H](CCCCN)NC1=O)C(=O)N[C@@H](CCCNC(=N)N)C(=O)N[C@@H](C)C(=O)N1CCC[C@@H]1C(=O)N[C@@H](CCN)C(=O)N[C@@H](CCCNC(=N)N)C(=O)N[C@@H](Cc1ccc(O)cc1)C(=O)N2 [Ex. 9] (cyclo(YHACRA[dP][Dab]RYCY[X2]K[dP]P); disulfide 4-11)

>  <remaining at 24 h, 10 μM>
76%

$$$$
>  <Compound>
CCCCCCCC(=O)NCCCC[C@@H]1NC(=O)[C@H](Cc2c[nH]cn2)NC(=O)[C@H](Cc2ccc(O)cc2)NC(=O)[C@@H]2CCCN2C(=O)[C@H]2CCCN2C(=O)[C@H](CCCCN)NC(=O)[C@H](CCC(N)=O)NC(=O)[C@H](Cc2ccc(O)cc2)NC(=O)[C@@H]2CSSC[C@H](NC1=O)C(=O)N[C@@H](CO)C(=O)N[C@@H](C)C(=O)N1CCC[C@@H]1C(=O)N[C@@H](CCN)C(=O)N[C@@H](CCCNC(=N)N)C(=O)N[C@@H](Cc1ccc(O)cc1)C(=O)N2 [Ex. 3] (cyclo(YHK(Octanoyl)CSA[dP][Dab]RYCYQK[dP]P); disulfide 4-11)

>  <remaining at 24 h, 10 μM>
86%

$$$$

Per the record, CCCCCCCCCC[C@@H]1NC(=O)[C@H](Cc2ccc(O)cc2)NC(=O)[C@@H]2CSSC[C@H](NC(=O)[C@H](Cc3ccc(O)cc3)NC(=O)[C@H](Cc3c[nH]cn3)NC(=O)[C@H](Cc3ccc(O)cc3)NC(=O)[C@@H]3CCCN3C(=O)[C@H]3CCCN3C(=O)[C@H](CCCCN)NC1=O)C(=O)N[C@@H](CCCNC(=N)N)C(=O)N[C@@H](C)C(=O)N1CCC[C@@H]1C(=O)N[C@@H](CCN)C(=O)N[C@@H](CCCNC(=N)N)C(=O)N[C@@H](Cc1ccc(O)cc1)C(=O)N2 [Ex. 8] (cyclo(YHYCRA[dP][Dab]RYCY[Gly(decyl)]K[dP]P); disulfide 4-11) has remaining at 24 h, 10 μM of 82%
